Entries and their pKd values follow.
target: T1, human TfR ectodomain fused to a mouse IgG1 Fc fragment (human, UniProt P02786 89-760); assay: SPR, kinetic
T1 construct: extracellular domain; ectodomain fused to the N-terminal end of the Fc, made in-house; not shown: mouse IgG1 Fc fragment
T1 sequence (P02786 89-760): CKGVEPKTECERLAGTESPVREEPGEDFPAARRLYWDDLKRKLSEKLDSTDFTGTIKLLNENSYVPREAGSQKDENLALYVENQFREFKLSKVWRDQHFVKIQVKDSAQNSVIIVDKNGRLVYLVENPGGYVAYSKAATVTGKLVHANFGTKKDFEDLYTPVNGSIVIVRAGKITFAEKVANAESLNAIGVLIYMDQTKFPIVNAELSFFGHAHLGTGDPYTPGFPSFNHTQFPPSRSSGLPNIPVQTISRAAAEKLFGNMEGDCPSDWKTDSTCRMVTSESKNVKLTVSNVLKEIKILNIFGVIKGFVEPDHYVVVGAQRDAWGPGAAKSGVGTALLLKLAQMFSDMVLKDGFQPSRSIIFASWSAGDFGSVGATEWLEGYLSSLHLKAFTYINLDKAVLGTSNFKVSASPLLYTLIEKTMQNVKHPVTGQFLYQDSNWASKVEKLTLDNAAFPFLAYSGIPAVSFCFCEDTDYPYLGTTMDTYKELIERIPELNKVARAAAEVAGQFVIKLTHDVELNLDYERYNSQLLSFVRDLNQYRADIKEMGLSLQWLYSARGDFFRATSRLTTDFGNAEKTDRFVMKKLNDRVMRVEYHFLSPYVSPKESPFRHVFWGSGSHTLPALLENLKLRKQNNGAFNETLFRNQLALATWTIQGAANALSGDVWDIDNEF
pKd: −log10 of the molar value.
measured_parameter: pKd

- binder: "B8^V33 (VHH) VHH: EVQLVESGGGVVQPGGSLRLSCAASGEIFSINFMRWYRQAPGKQREWVAGFTRDGSTNYPDSAKGRFTISRDNAKNTVYLQIDSLKPEDTAVYYCYMLKTWGQGTQVTVSS"
  measured_parameter: "pKd"
  readout_value: 7.34
- binder: "VHH A18 (C5^V18) (VHH) VHH: EVQLVESGGGVVQPGGSLKLSCVASGTDFSINFIRWYRQAPGKQREFVAGFTATGNTNYADSMKGRFTISRDNTKNAVYLQIDSLKPEDTAVYYCYMVDKWGQGTQVTVSS"
  measured_parameter: "pKd"
  readout_value: 7.36
- binder: "B8^V37 (VHH) VHH: EVQLVESGGGVVQPGGSLRLSCAASGEIFSINFMRWYRQAPGKQREWVAGFTRDGSTNYPDSAKGRFTISEDNAKNTVYLQIDSLKPEDTAVYYCYMLRTWGQGTQVTVSS"
  measured_parameter: "pKd"
  readout_value: 7.15
- binder: "B8^V27 (VHH) VHH: EVQLVESGGGVVQPGGSLRLSCAASGEIFSINFMRWYRQAPGKQREWVAGFTRDGSTVYPDSAKGRFTISRDNAKNTVYLQIDSLKPEDTAVYYCYMLDTWGQGTQVTVSS"
  measured_parameter: "pKd"
  readout_value: 8.14
- binder: "C5^V29 (VHH) VHH: EVQLVESGGGVVQPGGSLKLSCVASGADFSINFIRWYRQAPGKQREFVAGFTATGHTNYADSMKGRFTISRDNTKNAVYLQIDSLKPEDTAVYYCYMLDKWGQGTQVTVSS"
  measured_parameter: "pKd"
  readout_value: 9.07
- binder: "VHH A13 (C5^V13) (VHH) VHH: EVQLVESGGGVVQPGGSLKLSCVASGTDFSINFIRWYRQAPGKQREFVAGFSATGNTNYADSMKGRFTISRDNTKNAVYLQIDSLKPEDTAVYYCYMLDKWGQGTQVTVSS"
  measured_parameter: "pKd"
  readout_value: 9.45
- binder: "VHH A19 (C5^V19) (VHH) VHH: EVQLVESGGGVVQPGGSLKLSCVASGTDFSINFIRWYRQAPGKQREFVAGFTATGNTNYADSMKGRFTISRDNTKNAVYLQIDSLKPEDTAVYYCYMLEKWGQGTQVTVSS"
  measured_parameter: "pKd"
  readout_value: 7.65
- binder: "C5^h19 (VHH) VHH: EVQLVESGGGVVQPGGSLRLSCAASGTDFSINFIRWYRQAPGKQREFVAGFTATGNTNYADSVKGRFTISRDNAKNTLYLQMNSLRPEDTAVYYCYMLDKWGQGTQVTVSS"
  measured_parameter: "pKd"
  readout_value: 7.79

The reported numbers originate from patent US20230414780A1.
